Target: T1, human CD81 mutant V169A (human, UniProt P60033 1-236, limits assumed)
T1 construct: as m30; not shown: C-terminal V5 and 6xHis tags
T1 sequence: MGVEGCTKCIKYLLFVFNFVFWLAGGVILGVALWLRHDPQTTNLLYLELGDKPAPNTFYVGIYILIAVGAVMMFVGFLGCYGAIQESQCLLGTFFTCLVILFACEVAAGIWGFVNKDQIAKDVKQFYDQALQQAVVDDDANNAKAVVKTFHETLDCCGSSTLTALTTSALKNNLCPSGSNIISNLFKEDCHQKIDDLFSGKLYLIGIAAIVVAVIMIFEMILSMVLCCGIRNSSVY
Test: ELISA
propertyLabel: relative binding affinity

- 002-A07 S115N (antibody, human IgG4 S228P, lambda, V domains shown, IgG4 S228P; glycosylation site mutant of 002-A07 VL) VH: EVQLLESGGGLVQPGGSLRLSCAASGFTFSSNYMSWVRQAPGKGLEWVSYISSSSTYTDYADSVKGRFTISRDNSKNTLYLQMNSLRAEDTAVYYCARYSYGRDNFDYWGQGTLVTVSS VL: QSVLTQPPSASGTPGQRVTISCTGSTSNIGAGYDTHWYQQLPGTAPKLLIYGNSNRPSGVPDRFSGSKSGTSASLAISGLRSEDEADYYCQSYDTNLNVWVFGGGTKLTVLG: < 20%

Please find the next binder below.
Provide measured relative binding affinity value, entry: 003-D07 (antibody, human IgG4 S228P, lambda, V domains shown, IgG4 S228P) VH: EVQLLESGGGLVQPGGSLRLSCAASGFTFSSNYMSWVRQAPGKGLEWVSYISSSSTYTDYADSVKGRFTISRDNSKNTLYLQMNSLRAEDTAVYYCARYSYDRDNFDYWGQGTLVTVSS VL: QSVLTQPFSASGTPGQRVTISCTGSTSNIGAGYDTHWYQHLPGTAPKLLIYGNSNRPSGVPDRFSGSKSGTSASLAISGLRSEDEADYYCQSYDTNLSVWVFGGGTKLTVLG
< 20%
